Acetylcholinesterase (Tetronarce californica, UniProt P04058): reported IC50 for various compounds.
Sequence (P04058 whole entry): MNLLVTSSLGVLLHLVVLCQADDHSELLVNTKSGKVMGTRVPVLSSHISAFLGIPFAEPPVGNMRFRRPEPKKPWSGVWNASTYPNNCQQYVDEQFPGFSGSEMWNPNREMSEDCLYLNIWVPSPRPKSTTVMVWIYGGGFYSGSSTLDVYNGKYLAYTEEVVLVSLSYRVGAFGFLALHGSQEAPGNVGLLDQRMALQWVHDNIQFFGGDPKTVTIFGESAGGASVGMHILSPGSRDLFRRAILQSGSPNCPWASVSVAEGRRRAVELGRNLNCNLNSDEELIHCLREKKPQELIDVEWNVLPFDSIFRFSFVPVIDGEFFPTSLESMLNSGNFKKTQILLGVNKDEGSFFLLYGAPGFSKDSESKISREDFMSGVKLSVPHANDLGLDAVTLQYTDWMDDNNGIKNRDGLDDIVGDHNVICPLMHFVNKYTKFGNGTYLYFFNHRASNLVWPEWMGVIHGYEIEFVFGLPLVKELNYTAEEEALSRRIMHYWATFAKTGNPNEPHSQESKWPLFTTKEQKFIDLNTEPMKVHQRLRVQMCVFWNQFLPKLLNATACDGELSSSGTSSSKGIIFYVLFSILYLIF
Answers are plain numbers, in µM.

smiles_notation	test_result
O=C(N/N=C\c1ccc(Br)cc1F)c1ccccc1O	369
O=C(N/N=C\c1ccc(Cl)cc1Cl)c1ccccc1O	18.1
O=C(N/N=C\c1c2ccccc2cc2ccccc12)c1ccccc1O	4.12

Consider the following items and state reported IC50 for each.
1. O=C(N/N=C\c1cc(Cl)cc(Cl)c1O)c1ccccc1O
2. CCOc1ccccc1/C=N\NC(=O)c1ccccc1O
3. O=C(N/N=C\c1ccc(F)c(Br)c1)c1ccccc1O
4. CCCCOc1ccc(/C=N\NC(=O)c2ccccc2O)cc1
5. O=C(N/N=C\c1cccs1)c1ccccc1O
6. O=C(N/N=C\c1cccc(Br)c1)c1ccccc1O

8.41
415
311
15.4
430
156

Each compound below has a reported value. Please supply its IC50.
1. CCOc1ccc(/C=N\NC(=O)c2ccccc2O)cc1
2. O=C(N/N=C\c1cc(F)ccc1Br)c1ccccc1O
3. O=C(N/N=C\c1ccc(C(F)(F)F)cc1)c1ccccc1O

218
312
48.5

---

target_of_assay: Acetylcholinesterase (Tetronarce californica, UniProt P04058)
protocol_details: Acetylcholinesterase Assay
protocol_conditions: pH 7.7
measure: IC50
Answers without a unit are incomplete; give the number and then its unit.

smiles_notation	IC50
CC(C)(C)c1ccc(/C=N\NC(=O)c2ccccc2O)cc1	92.4 µM
COc1ccc(/C=N\NC(=O)c2ccccc2O)cc1Br	19.8 µM
O=C(N/N=C\c1cccc(O)c1)c1ccccc1O	355 µM

Please go through the list and note IC50 for each molecule.
1. O=C(N/N=C\c1ccc(OCc2ccccc2)cc1)c1ccccc1O
2. CSc1ccc(/C=N\NC(=O)c2ccccc2O)cc1
3. COc1cccc(OC)c1/C=N\NC(=O)c1ccccc1O

1: 8.12 µM; 2: 436 µM; 3: 461 µM

Take each entry in turn and give its IC50.
1. O=C(N/N=C\c1cccc(C(F)(F)F)c1)c1ccccc1O
2. CC(C)c1ccc(/C=N\NC(=O)c2ccccc2O)cc1

56.1 µM
39.8 µM

---

Assignment: determine reported log10 of IC50 for the given compounds.
target_of_assay: Cholinesterase (Homo sapiens, UniProt P06276)
Sequence (P06276 whole entry): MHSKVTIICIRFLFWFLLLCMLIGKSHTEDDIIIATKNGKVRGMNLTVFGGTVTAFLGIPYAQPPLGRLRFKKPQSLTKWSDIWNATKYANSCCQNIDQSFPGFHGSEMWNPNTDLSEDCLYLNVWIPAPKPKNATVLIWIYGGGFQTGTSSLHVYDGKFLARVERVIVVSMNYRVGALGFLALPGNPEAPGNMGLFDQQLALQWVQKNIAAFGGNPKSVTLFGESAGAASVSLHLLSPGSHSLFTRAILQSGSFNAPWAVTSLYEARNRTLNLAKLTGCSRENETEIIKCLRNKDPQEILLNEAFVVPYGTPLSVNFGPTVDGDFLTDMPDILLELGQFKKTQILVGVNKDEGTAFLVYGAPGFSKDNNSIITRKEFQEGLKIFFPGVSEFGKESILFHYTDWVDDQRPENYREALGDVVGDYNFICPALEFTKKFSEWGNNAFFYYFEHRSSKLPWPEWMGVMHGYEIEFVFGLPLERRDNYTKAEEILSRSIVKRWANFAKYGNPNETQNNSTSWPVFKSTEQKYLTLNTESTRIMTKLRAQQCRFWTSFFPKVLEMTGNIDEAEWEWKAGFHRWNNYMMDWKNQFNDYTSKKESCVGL
protocol_details: Butyrylcholinesterase Assay
protocol_conditions: pH 7.7
Scale: log10; quantity: IC50; unit before log: µM

smiles_notation	log10 of IC50
CC(C)c1ccc(/C=N\NC(=O)c2ccccc2O)cc1	1.86
CCOc1ccc(/C=N\NC(=O)c2ccccc2O)cc1	2.06

Hi team, please reply with log10 of IC50 for each item in this list.
1. O=C(N/N=C\c1ccc(C(F)(F)F)cc1)c1ccccc1O
2. O=C(N/N=C\c1ccc(Br)cc1F)c1ccccc1O
3. O=C(N/N=C\c1cc(Cl)cc(Cl)c1O)c1ccccc1O
4. O=C(N/N=C\c1ccc(Cl)cc1Cl)c1ccccc1O
5. CC(C)(C)c1ccc(/C=N\NC(=O)c2ccccc2O)cc1
6. O=C(N/N=C\c1ccco1)c1ccccc1O
7. O=C(N/N=C\c1cc(F)ccc1Br)c1ccccc1O

2.33
2.66
0.96
1.64
0.81
2.62
2.43

---

The reader will find IC50 measurements below, all made with Cholinesterase (Homo sapiens).
One number for each entry, in µM.

smiles_notation	test_result
O=C(N/N=C\c1ccc(O)cc1)c1ccccc1O	424

Parameters: items (list). Returns: IC50 for each item.
1. COc1cccc(/C=N\NC(=O)c2ccccc2O)c1OC
2. COc1cccc(OC)c1/C=N\NC(=O)c1ccccc1O
3. COc1ccc(/C=N\NC(=O)c2ccccc2O)cc1Br

[61.6, 79.5, 38.4]

Please state IC50 for every molecule in the list that follows.
1. O=C(N/N=C\c1cccc(C(F)(F)F)c1)c1ccccc1O
2. COc1ccc(/C=N\NC(=O)c2ccccc2O)cc1OCc1ccccc1
3. CCOc1ccccc1/C=N\NC(=O)c1ccccc1O

1. 112
2. 86.2
3. 116

Quick batch: IC50 for everything below.
1. CCCCOc1ccc(/C=N\NC(=O)c2ccccc2O)cc1
2. O=C(N/N=C\c1ccc(OCc2ccccc2)cc1)c1ccccc1O

1: 41.8; 2: 37.8

For each of the items listed, what is its IC50?
1. COc1ccc(/C=N\NC(=O)c2ccccc2O)c(OC)c1
2. O=C(N/N=C\c1cccc(Br)c1)c1ccccc1O

1: 293; 2: 121
